system: Hepatocyte; experiment: Cytotoxicity against hyperoxaluric-primary hepatocyte isolated from Agxt1-knockdown PH1 C57BL/6 mouse assessed as cell death at 10 uM by MTS assay; assay type: toxicity, cell-based; conditions: hepatocytes, Agxt1-knockdown PH1, 10 µM
EXPERIMENTAL ENDPOINT: Activity

{"COMPOUND": "O=Cc1ccc(-c2ccc(O)c(C(=O)O)c2)o1", "RESULT": "Non-Toxic"}
{"COMPOUND": "C#CCCCC(=O)Nc1ccc(C(=O)c2ccc(NCc3ccc(-c4ccc(O)c(C(=O)O)c4)o3)cc2)cc1.N", "RESULT": "Non-Toxic"}
{"COMPOUND": "N.O=C(O)c1cc(-c2ccc(CNc3ccc([N+](=O)[O-])cc3)o2)ccc1O", "RESULT": "Non-Toxic"}
{"COMPOUND": "N.O=C(O)c1cc(-c2ccc(CNc3ccc(Br)cc3)o2)ccc1O", "RESULT": "Non-Toxic"}
{"COMPOUND": "C#CCN(Cc1ccc(-c2ccc(O)c(C(=O)O)c2)o1)Cc1ccc(-c2ccc(O)c(C(=O)O)c2)o1.N.N", "RESULT": "Non-Toxic"}

So what does the record say about Activity for CC(C)(C)C(O)/C=C/c1ccc2c(c1)OCO2 (stereo not given) [STIRIPENTOL] ?
Non-Toxic

Next compound: CCN(CC)CC.O=C(O)c1cc(-c2ccc(CN(Cc3ccccc3)Cc3ccco3)o2)ccc1O
Non-Toxic

Next compound: N.O=C(O)c1cc(-c2ccc(CNCc3ccccc3)o2)ccc1O
Non-Toxic

Next compound: N.N.O=C(O)c1cc(-c2ccc(CN(Cc3ccccc3)Cc3ccc(-c4ccc(O)c(C(=O)O)c4)o3)o2)ccc1O
Non-Toxic

Next compound: C#CCNCc1ccc(-c2ccc(O)c(C(=O)O)c2)o1.N
Non-Toxic

Data provenance is ChEMBL document CHEMBL5120856.
